# Tested on: 266 human PDZ domains (PDZome)
# measurement-notes: Holdup assay (chromatographic retention, PDZome-binding profile, BI)
# Set-up: key: binding intensity: 0.00 = no binding, 1.00 = maximal binding
# study-conditions: PDZ domain PDLIM5-1
*1 amine or outer side, *2 acyl side, *3 side chain or, on linkers, in order; H or OH if unused. Where a SMILES comes first, the peptide text is derived from it. The star is where a group is joined. X1 = O=C(CCCC[C@@H]1SC[C@@H]2NC(=O)N[C@@H]21)NCCCOCCOCCOCCCN*; Suc = O=C(CCC(=O)[*:2])[*:1]
recorded-metric: BI
In your answer, state the number alone without any accompanying words.

CC[C@H](C)[C@H](NC(=O)[C@H](CCC(N)=O)NC(=O)[C@@H](NC(=O)[C@H](Cc1c[nH]cn1)NC(=O)[C@H](CCC(N)=O)NC(=O)[C@H](CC(=O)O)NC(=O)[C@H](CCC(=O)O)NC(=O)[C@H](CC(=O)O)NC(=O)CCC(=O)NCCCOCCOCCOCCCNC(=O)CCCC[C@@H]1SC[C@@H]2NC(=O)N[C@@H]21)[C@@H](C)O)C(=O)N[C@H](C(=O)N[C@@H](CCCNC(=N)N)C(=O)N[C@H](C(=O)O)C(C)C)[C@@H](C)O [PTEN_KR] ({X1-Suc}-DEDQHTQITRV-OH) ... 0.086
CC[C@H](C)[C@H](NC(=O)[C@H](CCC(N)=O)NC(=O)[C@@H](NC(=O)[C@H](Cc1c[nH]cn1)NC(=O)[C@H](CCC(N)=O)NC(=O)[C@H](CC(=O)O)NC(=O)[C@H](CCC(=O)O)NC(=O)[C@H](CC(=O)O)NC(=O)CCC(=O)NCCCOCCOCCOCCCNC(=O)CCCC[C@@H]1SC[C@@H]2NC(=O)N[C@@H]21)[C@@H](C)O)C(=O)N[C@H](C(=O)N[C@@H](CCCCNC(C)=O)C(=O)N[C@H](C(=O)O)C(C)C)[C@@H](C)O ... -0.022
CC[C@H](C)[C@H](NC(=O)[C@H](CCC(N)=O)NC(=O)[C@@H](NC(=O)[C@H](Cc1c[nH]cn1)NC(=O)[C@H](CCC(N)=O)NC(=O)[C@H](CC(=O)O)NC(=O)[C@H](CCC(=O)O)NC(=O)[C@H](CC(=O)O)NC(=O)[C@H](Cc1ccccc1)NC(=O)[C@@H]1CCCN1C(=O)CCC(=O)NCCCOCCOCCOCCCNC(=O)CCCC[C@@H]1SC[C@@H]2NC(=O)N[C@@H]21)[C@@H](C)O)C(=O)N[C@H](C(=O)N[C@@H](CCCCN)C(=O)N[C@H](C(=O)O)C(C)C)[C@@H](C)O [PTEN_13] ({X1-Suc}-PFDEDQHTQITKV-OH) ... -0.025

Now for a further compound.
-- ask Supply recorded BI for "CC[C@H](C)[C@H](NC(=O)[C@H](CCC(N)=O)NC(=O)[C@@H](NC(=O)[C@H](Cc1c[nH]cn1)NC(=O)[C@H](CCC(N)=O)NC(=O)[C@H](CC(=O)O)NC(=O)[C@H](CCC(=O)O)NC(=O)[C@H](CC(=O)O)NC(=O)CCC(=O)NCCCOCCOCCOCCCNC(=O)CCCC[C@@H]1SC[C@@H]2NC(=O)N[C@@H]21)[C@@H](C)O)C(=O)N[C@H](C(=O)N[C@@H](CCCCN)C(=O)N[C@H](C(=O)O)C(C)C)[C@@H](C)O" here.
-- reply 0.07

---

Recorded BI for the following compounds
# Tested on: 266 human PDZ domains (PDZome)
# measurement-notes: Holdup assay (chromatographic retention, PDZome-binding profile, BI)
# Design: key: binding intensity: 0.00 = no binding, 1.00 = maximal binding
# study-conditions: PDZ domain PTPN4-1
# From the text: The holdup method is a chromatographic approach in solution developed in our group that allows to measure the binding strength of a peptide, attached to a resin, against a library of domains of a same family. […] The flow-throughs containing the unbound protein fraction are recovered by filtration and loaded on a capillary electrophoresis instrument to quantify the amount of remaining free PDZ. […] The assay is particularly suited to quantitatively evaluate and compare large numbers of interactions. […]
*1 amine or outer side, *2 acyl side, *3 side chain or, on linkers, in order; H or OH if unused. Where a SMILES comes first, the peptide text is derived from it. The star is where a group is joined. X1 = O=C(CCCC[C@@H]1SC[C@@H]2NC(=O)N[C@@H]21)NCCCOCCOCCOCCCN*; Suc = O=C(CCC(=O)[*:2])[*:1]
In your answer, state the number alone without any accompanying words.

-- ask Supply recorded BI for CC[C@H](C)[C@H](NC(=O)[C@H](CCC(N)=O)NC(=O)[C@@H](NC(=O)[C@H](Cc1c[nH]cn1)NC(=O)[C@H](CCC(N)=O)NC(=O)[C@H](CC(=O)O)NC(=O)[C@H](CCC(=O)O)NC(=O)[C@H](CC(=O)O)NC(=O)[C@H](Cc1ccccc1)NC(=O)[C@@H]1CCCN1C(=O)CCC(=O)NCCCOCCOCCOCCCNC(=O)CCCC[C@@H]1SC[C@@H]2NC(=O)N[C@@H]21)[C@@H](C)O)C(=O)N[C@H](C(=O)N[C@@H](CCCCN)C(=O)N[C@H](C(=O)O)C(C)C)[C@@H](C)O [PTEN_13] ({X1-Suc}-PFDEDQHTQITKV-OH) here.
-- reply 0.026

-- ask Supply recorded BI for CC[C@H](C)[C@H](NC(=O)[C@H](CCC(N)=O)NC(=O)[C@@H](NC(=O)[C@H](Cc1c[nH]cn1)NC(=O)[C@H](CCC(N)=O)NC(=O)[C@H](CC(=O)O)NC(=O)[C@H](CCC(=O)O)NC(=O)[C@H](CC(=O)O)NC(=O)CCC(=O)NCCCOCCOCCOCCCNC(=O)CCCC[C@@H]1SC[C@@H]2NC(=O)N[C@@H]21)[C@@H](C)O)C(=O)N[C@H](C(=O)N[C@@H](CCCNC(=N)N)C(=O)N[C@H](C(=O)O)C(C)C)[C@@H](C)O [PTEN_KR] ({X1-Suc}-DEDQHTQITRV-OH) here.
-- reply -0.038

-- ask Supply recorded BI for "CC[C@H](C)[C@H](NC(=O)[C@H](CCC(N)=O)NC(=O)[C@@H](NC(=O)[C@H](Cc1c[nH]cn1)NC(=O)[C@H](CCC(N)=O)NC(=O)[C@H](CC(=O)O)NC(=O)[C@H](CCC(=O)O)NC(=O)[C@H](CC(=O)O)NC(=O)CCC(=O)NCCCOCCOCCOCCCNC(=O)CCCC[C@@H]1SC[C@@H]2NC(=O)N[C@@H]21)[C@@H](C)O)C(=O)N[C@H](C(=O)N[C@@H](CCCCNC(C)=O)C(=O)N[C@H](C(=O)O)C(C)C)[C@@H](C)O" here.
-- reply 0.02

-- ask Supply recorded BI for "CC[C@H](C)[C@H](NC(=O)[C@H](CCC(N)=O)NC(=O)[C@@H](NC(=O)[C@H](Cc1c[nH]cn1)NC(=O)[C@H](CCC(N)=O)NC(=O)[C@H](CC(=O)O)NC(=O)[C@H](CCC(=O)O)NC(=O)[C@H](CC(=O)O)NC(=O)CCC(=O)NCCCOCCOCCOCCCNC(=O)CCCC[C@@H]1SC[C@@H]2NC(=O)N[C@@H]21)[C@@H](C)O)C(=O)N[C@H](C(=O)N[C@@H](CCCCN)C(=O)N[C@H](C(=O)O)C(C)C)[C@@H](C)O" here.
-- reply 0.017

---

Recorded Kd for the following compounds
# study-system: MAGI1 PDZ 3 (Homo sapiens)
# Construct: made in house; host or cells: E. coli
# Sequence (Q96QZ7 643-721 limits assumed): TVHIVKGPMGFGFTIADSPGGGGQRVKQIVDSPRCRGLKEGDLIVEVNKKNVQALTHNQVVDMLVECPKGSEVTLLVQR
# measurement-notes: Holdup assay, MAGI1-3
# Assay type: binding
*1 amine or outer side, *2 acyl side, *3 side chain or, on linkers, in order; H or OH if unused. Where a SMILES comes first, the peptide text is derived from it. The star is where a group is joined. X1 = O=C(CCCC[C@@H]1SC[C@@H]2NC(=O)N[C@@H]21)NCCCOCCOCCOCCCN*; Suc = O=C(CCC(=O)[*:2])[*:1]
The reply should be a number in µM, with the unit left off.

-- ask Supply recorded Kd for "CC[C@H](C)[C@H](NC(=O)[C@H](CCC(N)=O)NC(=O)[C@@H](NC(=O)[C@H](Cc1c[nH]cn1)NC(=O)[C@H](CCC(N)=O)NC(=O)[C@H](CC(=O)O)NC(=O)[C@H](CCC(=O)O)NC(=O)[C@H](CC(=O)O)NC(=O)CCC(=O)NCCCOCCOCCOCCCNC(=O)CCCC[C@@H]1SC[C@@H]2NC(=O)N[C@@H]21)[C@@H](C)O)C(=O)N[C@H](C(=O)N[C@@H](CCCCN)C(=O)N[C@H](C(=O)O)C(C)C)[C@@H](C)O" here.
-- reply 29.6

-- ask Supply recorded Kd for "CC[C@H](C)[C@H](NC(=O)[C@H](CCC(N)=O)NC(=O)[C@@H](NC(=O)[C@H](Cc1c[nH]cn1)NC(=O)[C@H](CCC(N)=O)NC(=O)[C@H](CC(=O)O)NC(=O)[C@H](CCC(=O)O)NC(=O)[C@H](CC(=O)O)NC(=O)CCC(=O)NCCCOCCOCCOCCCNC(=O)CCCC[C@@H]1SC[C@@H]2NC(=O)N[C@@H]21)[C@@H](C)O)C(=O)N[C@H](C(=O)N[C@@H](CCCCNC(C)=O)C(=O)N[C@H](C(=O)O)C(C)C)[C@@H](C)O" here.
-- reply 10

-- ask Supply recorded Kd for CC[C@H](C)[C@H](NC(=O)[C@H](CCC(N)=O)NC(=O)[C@@H](NC(=O)[C@H](Cc1c[nH]cn1)NC(=O)[C@H](CCC(N)=O)NC(=O)[C@H](CC(=O)O)NC(=O)[C@H](CCC(=O)O)NC(=O)[C@H](CC(=O)O)NC(=O)[C@H](Cc1ccccc1)NC(=O)[C@@H]1CCCN1C(=O)CCC(=O)NCCCOCCOCCOCCCNC(=O)CCCC[C@@H]1SC[C@@H]2NC(=O)N[C@@H]21)[C@@H](C)O)C(=O)N[C@H](C(=O)N[C@@H](CCCCN)C(=O)N[C@H](C(=O)O)C(C)C)[C@@H](C)O [PTEN_13] ({X1-Suc}-PFDEDQHTQITKV-OH) here.
-- reply 10.4

-- ask Supply recorded Kd for CC[C@H](C)[C@H](NC(=O)[C@H](CCC(N)=O)NC(=O)[C@@H](NC(=O)[C@H](Cc1c[nH]cn1)NC(=O)[C@H](CCC(N)=O)NC(=O)[C@H](CC(=O)O)NC(=O)[C@H](CCC(=O)O)NC(=O)[C@H](CC(=O)O)NC(=O)CCC(=O)NCCCOCCOCCOCCCNC(=O)CCCC[C@@H]1SC[C@@H]2NC(=O)N[C@@H]21)[C@@H](C)O)C(=O)N[C@H](C(=O)N[C@@H](CCCNC(=N)N)C(=O)N[C@H](C(=O)O)C(C)C)[C@@H](C)O [PTEN_KR] ({X1-Suc}-DEDQHTQITRV-OH) here.
-- reply 14.7
